- Test system: Rattus norvegicus
- method.notes: Renal toxicity in rat Freund's adjuvant induced arthritis model of chronic inflammation assessed as assessed as creatinine level at equimolar oral dose relative to 10 mg/kg, po indomethacin dosed after 14 days from day of adjuvant injection until day 21 and measured on day 21 (reference value: 0.62 +/- 0.049 mg/dL)
- Assay type: organism-based
- applied.conditions: in vivo, 336 h
value.kind: Activity (mg/dL)
# number only, unit mg/dL dropped from output

Query string: Returns the measured Activity for the input compound. Input: `O=c1nc(-c2ccccc2)c(-c2ccccc2)nn1Cc1nnc(-c2ccc([N+](=O)[O-])cc2)o1`
Result string: 0.88

Query string: Returns the measured Activity for the input compound. Input: `COc1ccc(-c2nnc(Cn3nc(-c4ccccc4)c(-c4ccccc4)nc3=O)o2)cc1`
Result string: 0.91

Query string: Returns the measured Activity for the input compound. Input: `Nc1ccc(-c2nnc(Cn3nc(-c4ccccc4)c(-c4ccccc4)nc3=O)o2)cc1`
Result string: 0.86

Query string: Returns the measured Activity for the input compound. Input: `O=c1nc(-c2ccccc2)c(-c2ccccc2)nn1Cc1nnc(-c2ccc(Cl)cc2)o1`
Result string: 0.78

Query string: Returns the measured Activity for the input compound. Input: `O=c1nc(-c2ccccc2)c(-c2ccccc2)nn1Cc1nnc(-c2ccc(O)cc2O)o1`
Result string: 0.72

###

- Tested on: Rattus norvegicus
- method.notes: Hepato-toxicity in rat Freund's adjuvant induced arthritis model of chronic inflammation assessed as assessed as SGOT level at equimolar oral dose relative to 10 mg/kg, po indomethacin dosed after 14 days from day of adjuvant injection until day 21 and measured on day 21 (reference value: 92.48 +/- 7.8 U/mL)
- Type: organism-based
- applied.conditions: in vivo, 336 h
Here, each record is paired with measured Activity data.
# number only, unit U/ml dropped from output

Recorded Activity, per entry:
chem_smiles=O=c1nc(-c2ccccc2)c(-c2ccccc2)nn1Cc1nnc(-c2ccc([N+](=O)[O-])cc2)o1 value_kind=Activity readout_value=102.38
chem_smiles=O=c1nc(-c2ccccc2)c(-c2ccccc2)nn1Cc1nnc(-c2ccc(O)cc2O)o1 value_kind=Activity readout_value=99.35
chem_smiles=O=c1nc(-c2ccccc2)c(-c2ccccc2)nn1Cc1nnc(-c2ccc(Cl)cc2)o1 value_kind=Activity readout_value=107.18
chem_smiles=Nc1ccc(-c2nnc(Cn3nc(-c4ccccc4)c(-c4ccccc4)nc3=O)o2)cc1 value_kind=Activity readout_value=98.21

Query string: Returns the measured Activity for the input molecule. Input: `COc1ccc(-c2nnc(Cn3nc(-c4ccccc4)c(-c4ccccc4)nc3=O)o2)cc1`
Result string: 103.17

###

- method.notes: In-vitro anti-inflammatory activity assessed as inhibition of denaturation of bovine serum albumin at equimolar dose relative to 10 mg indomethacin
- Type: functional
Here, each record is paired with measured inhibition data.
# number only, unit % dropped from output

chem_smiles=CCOC(=O)Cn1nc(-c2ccccc2)c(-c2ccccc2)nc1=O readout_value=35.7
chem_smiles=O=c1nc(-c2ccccc2)c(-c2ccccc2)nn1Cc1nnc(Oc2ccc(Cl)cc2Cl)o1 readout_value=72.7

Below: the item to evaluate.
Query string: Returns the measured inhibition for the input molecule. Input: `O=c1nc(-c2ccccc2)c(-c2ccccc2)nn1Cc1nnc(-c2ccc([N+](=O)[O-])cc2)o1`
Result string: 78.4
